Provide the recorded inhibition for the entries that follow.
system: Human immunodeficiency virus type 1 reverse transcriptase (Human immunodeficiency virus 1)
experimentSummary: Inhibition of HIV-1 reverse transcriptase at a concentration of 1 uM
Give bare numbers, in %.

# annotated cases, reported inhibition shown
- CCN1C(=O)c2cccnc2Oc2cc(C)cc([N+](=O)[O-])c21: 85
- Cc1cc(C)c2c(c1)Oc1ccc(C#N)cc1C(=O)N2C: 77
- CC(C)CN1C(=O)c2ccccc2Oc2ncccc21: 29
- CN1C(=O)c2ccccc2Oc2ccccc21: 20
- Cc1cccc2c1NC(=O)c1cc(N)ccc1O2: 31

Count: 3. Required value per item: inhibition.
1. CCN1C(=O)c2cc(N)ccc2Oc2ccccc21
2. CSCCN1C(=O)c2ccccc2Oc2nc(Cl)ccc21
3. CCN1C(=O)c2cccnc2Oc2cc(C)cc(N)c21

1. 82
2. 79
3. 73

* * *

system: Human immunodeficiency virus type 1 reverse transcriptase (Human immunodeficiency virus 1, UniProt Q72547)
endpoint: IC50 (nM)
One number for each entry, in nM.

# annotated cases, reported IC50 shown
* CCCN1C(=O)c2cc(N)ccc2Oc2c(C)cc(C)cc21 | 900
* CN1C(=O)c2cc(N)ccc2Oc2ccccc21 | 180
* Cc1ccc2c(c1)Oc1ccc(O)cc1C(=O)N2C | 640

Fill blank: measured IC50 of the molecule `CCN1C(=O)c2cccnc2Oc2cc(C)cc(C#N)c21` is ____.
19

* * *

system: Human immunodeficiency virus type 1 reverse transcriptase (Human immunodeficiency virus 1) (UniProt Q72547)
experimentSummary: Inhibition of HIV-1 reverse transcriptase at a concentration of 1 uM
Classify as follows. Reported inhibition greater than or equal to 50%: True. Reported inhibition below: False.

• O=C1c2ccccc2Oc2ccccc2N1O = False

Is it the case that `CCN1C(=O)c2cc(N)ccc2Oc2ccc(C)cc21` has inhibition reaching or exceeding 50%?
True

Is it the case that `Cc1cc(CO)c2c(c1)Oc1ncccc1C(=O)N2C` has inhibition reaching or exceeding 50%?
False

Is it the case that `CN1C(=O)c2cccnc2Oc2ccccc21` has inhibition reaching or exceeding 50%?
False

Is it the case that `Cc1cc(C)c2c(c1)Oc1ccccc1C(=O)N2` has inhibition reaching or exceeding 50%?
False

Is it the case that `CCCN1C(=O)c2cc(N)ccc2Oc2cc(C)c(C)cc21` has inhibition reaching or exceeding 50%?
True

Is it the case that `COC(=O)c1cc(C)cc2c1N(C)C(=O)c1cccnc1O2` has inhibition reaching or exceeding 50%?
True

Is it the case that `Cc1cc(C)c2c(n1)Oc1ccccc1C(=O)N2C` has inhibition reaching or exceeding 50%?
False

Is it the case that `CCN1C(=O)c2cc(N)cnc2Oc2cc(C)c(C)cc21` has inhibition reaching or exceeding 50%?
True

Is it the case that `CCCN1C(=O)c2ccccc2S(=O)(=O)c2ccccc21` has inhibition reaching or exceeding 50%?
False

Is it the case that `CN1C(=O)c2ccccc2Oc2nc(Cl)ccc21` has inhibition reaching or exceeding 50%?
False

Is it the case that `Cc1ccc2c(c1)Oc1ccc(O)cc1C(=O)N2C` has inhibition reaching or exceeding 50%?
True

Is it the case that `CCCN1C(=O)c2ccccc2Oc2ccccc21` has inhibition reaching or exceeding 50%?
True

Is it the case that `CCN1C(=O)c2ccccc2Oc2ccccc21` has inhibition reaching or exceeding 50%?
True

Is it the case that `CCN1C(=O)c2cccnc2Oc2cc(C)cc(C#N)c21` has inhibition reaching or exceeding 50%?
True

Is it the case that `O=C1Nc2ccccc2Oc2ccccc21` has inhibition reaching or exceeding 50%?
False

Is it the case that `CCN1C(=O)c2ccccc2Oc2nc(Cl)ccc21` has inhibition reaching or exceeding 50%?
False

Is it the case that `CN(C)c1ccc2c(c1)Oc1ncccc1C(=O)N2C` has inhibition reaching or exceeding 50%?
False

Is it the case that `Cc1cc(C)c2c(c1)Oc1ncc(N)cc1C(=O)N2C` has inhibition reaching or exceeding 50%?
True

Is it the case that `CN1C(=O)c2ccccc2Oc2cc(N)ccc21` has inhibition reaching or exceeding 50%?
False

Is it the case that `CN1C(=O)c2cc(CN)ccc2Oc2ccccc21` has inhibition reaching or exceeding 50%?
False

Is it the case that `CNc1ccc2c(c1)C(=O)N(C)c1ccccc1O2` has inhibition reaching or exceeding 50%?
False

Is it the case that `CCCN1C(=S)c2ccccc2Oc2ccccc21` has inhibition reaching or exceeding 50%?
False

* * *

system: Human immunodeficiency virus type 1 reverse transcriptase (Human immunodeficiency virus 1)
experimentSummary: In vitro inhibitory activity against HIV-1 reverse transcriptase.
Provide the recorded log10(IC50) for the entries that follow.
Use the decimal logarithm of IC50 (nM).

• CCN1C(=O)c2cccnc2Oc2cc(C)cc(N)c21 = 2.12
• CCCN1C(=O)c2ccccc2Oc2nc(Cl)ccc21 = 2.32
• CCCN1C(=O)c2cc(N)ccc2Oc2cc(C)ccc21 = 2.11
• CCN1C(=O)c2cccnc2Oc2cc(C)cc(C)c21 = 1.46
• CCCN1C(=O)c2ccccc2Sc2ccccc21 = 2.60

Count: 5. Required value per item: log10(IC50).
1. CCN1C(=O)c2cc(N)cnc2Oc2cc(C)cc(C)c21
2. Cc1ccc2c(c1)Oc1ccccc1C(=O)N2C
3. CCCN1C(=O)c2ccccc2Oc2ccccc21
4. Cc1cc2c(cc1C)N(C)C(=O)c1cc(N)cnc1O2
5. CCN1C(=S)c2cccnc2Oc2cc(C)cc(C)c21

1: 1.43; 2: 2.78; 3: 2.57; 4: 2.51; 5: 1.95

Count: 3. Required value per item: log10(IC50).
1. CCN1C(=O)c2cc(N)cnc2Oc2cc(C)c(C)cc21
2. Cc1cc(C)c2c(c1)Oc1ncc(N)cc1C(=O)N2C
3. Cc1cc(C)c2c(c1)Oc1ccc(C#N)cc1C(=O)N2C

1. 1.85
2. 1.66
3. 1.70

* * *

system: Human immunodeficiency virus type 1 reverse transcriptase (Human immunodeficiency virus 1) (UniProt Q72547)
experimentSummary: Inhibition of HIV-1 reverse transcriptase at a concentration of 1 uM
endpoint: inhibition (%)
Answers are plain numbers, in %.

* CCCN1C(=O)c2ccccc2[S+]([O-])c2ccccc21 (configuration not stated) | 20

Count: 5. Required value per item: inhibition.
1. CN1C(=O)c2ccccc2Oc2ncccc21
2. CCN1Cc2ccccc2Oc2ccccc21
3. COc1ccc2c(c1)Oc1ncccc1C(=O)N2C
4. CN1C(=O)c2cccnc2Oc2cc(F)ccc21
5. Cc1ccc2c(c1)Oc1ncccc1C(=O)N2C

[2, 12, 24, 3, 43]

Fill blank: measured inhibition of the compound `Cc1cc2c(c(S(C)(=O)=O)c1)N(C)C(=O)c1cccnc1O2` is ____.
27

* * *

Provide the recorded inhibition for the entries that follow.
system: Human immunodeficiency virus type 1 reverse transcriptase (Human immunodeficiency virus 1)
experimentSummary: Inhibition of HIV-1 reverse transcriptase at a concentration of 1 uM
Answers are plain numbers, in %.

Count: 4. Required value per item: inhibition.
1. CN1C(=O)c2cc(N)ccc2Oc2ccccc21
2. CCN1C(=O)c2cc([N+](=O)[O-])ccc2Oc2ccccc21
3. CN1C(=O)c2ccc(N)cc2Oc2ccccc21
4. CCCN1C(=O)c2cc(N)ccc2Oc2c(C)cc(C)cc21

1: 73; 2: 23; 3: 19; 4: 52

Count: 8. Required value per item: inhibition.
1. CN1C(=O)c2cccnc2Oc2cccc(C#N)c21
2. Cc1cc(N)c2c(c1)Oc1ncccc1C(=O)N2C
3. C=CCN1C(=O)c2cccnc2Oc2ccccc21
4. CCN1C(=O)c2cccnc2Oc2cc(C)cc(C)c21
5. CN1C(=O)c2cccnc2Oc2cc(O)ccc21
6. CCCN1C(=O)c2cccnc2Oc2ncccc21
7. Cc1cc(C)c2c(c1)Oc1ccc(N)cc1C(=O)N2C
8. CCCN1C(=O)c2cc(N)ccc2Oc2cc(C)ccc21

29
53
40
92
14
5
95
84

* * *

Values of pIC50 reported for Human immunodeficiency virus type 1 reverse transcriptase (Human immunodeficiency virus 1) appear below.
Answers are plain numbers, as −log10 of the molar value.

# annotated cases, reported pIC50 shown
- CCCN1C(=S)c2ccccc2Oc2ccccc21: 5.66
- CCN1C(=O)c2ccccc2Oc2ccccc21: 6.25
- Cc1cc2c(c([N+](=O)[O-])c1)N(C)C(=O)c1cccnc1O2: 7.64
- CCN1C(=O)c2cc(N)ccc2Oc2ccc(C)cc21: 6.62
- C=CCN1C(=O)c2ccccc2Oc2ccccc21: 6.33
- Cc1cc(C)c2c(c1)Oc1ccccc1C(=O)N2C: 7.24

Let us move to another entry and its pIC50.
Fill blank: measured pIC50 of the molecule `COC(=O)c1cc(C)cc2c1N(C)C(=O)c1cccnc1O2` is ____.
7.66

* * *

Values of pIC50 reported for Human immunodeficiency virus type 1 reverse transcriptase (Human immunodeficiency virus 1) appear below.
Answers are plain numbers, as −log10 of the molar value.

• CCCN1C(=O)c2cc(N)ccc2Oc2ccc(C)c(C)c21 = 6.17
• CC(C)N1C(=O)c2ccccc2Oc2ccccc21 = 6.47
• Cc1cc2c(cc1C)N(C(C)C)C(=O)c1cc(N)cnc1O2 = 7.35
• Cc1cc(C)c2c(c1)Oc1ccc(N)cc1C(=O)N2C = 7.70
• CSCCN1C(=O)c2ccccc2Oc2nc(Cl)ccc21 = 7.14

Fill blank: measured pIC50 of the molecule `CCCN1C(=O)c2cc(N)ccc2Oc2cccc(C)c21` is ____.
6.59
